molecular target: Multidrug efflux pump subunit AcrB (Escherichia coli (strain K12)) (UniProt P31224); assay: Inhibition of AcrB in Escherichia coli BW25113 assessed as potentiation of chloramphenicol induced antibacterial activity by measuring chloramphenicol MIC at 256 ug/ml measured after 18 hrs by checkerboard titration method (reference value: 8 ug/ml); conditions: dose 256.0 µg/ml
Sequence (P31224 whole entry): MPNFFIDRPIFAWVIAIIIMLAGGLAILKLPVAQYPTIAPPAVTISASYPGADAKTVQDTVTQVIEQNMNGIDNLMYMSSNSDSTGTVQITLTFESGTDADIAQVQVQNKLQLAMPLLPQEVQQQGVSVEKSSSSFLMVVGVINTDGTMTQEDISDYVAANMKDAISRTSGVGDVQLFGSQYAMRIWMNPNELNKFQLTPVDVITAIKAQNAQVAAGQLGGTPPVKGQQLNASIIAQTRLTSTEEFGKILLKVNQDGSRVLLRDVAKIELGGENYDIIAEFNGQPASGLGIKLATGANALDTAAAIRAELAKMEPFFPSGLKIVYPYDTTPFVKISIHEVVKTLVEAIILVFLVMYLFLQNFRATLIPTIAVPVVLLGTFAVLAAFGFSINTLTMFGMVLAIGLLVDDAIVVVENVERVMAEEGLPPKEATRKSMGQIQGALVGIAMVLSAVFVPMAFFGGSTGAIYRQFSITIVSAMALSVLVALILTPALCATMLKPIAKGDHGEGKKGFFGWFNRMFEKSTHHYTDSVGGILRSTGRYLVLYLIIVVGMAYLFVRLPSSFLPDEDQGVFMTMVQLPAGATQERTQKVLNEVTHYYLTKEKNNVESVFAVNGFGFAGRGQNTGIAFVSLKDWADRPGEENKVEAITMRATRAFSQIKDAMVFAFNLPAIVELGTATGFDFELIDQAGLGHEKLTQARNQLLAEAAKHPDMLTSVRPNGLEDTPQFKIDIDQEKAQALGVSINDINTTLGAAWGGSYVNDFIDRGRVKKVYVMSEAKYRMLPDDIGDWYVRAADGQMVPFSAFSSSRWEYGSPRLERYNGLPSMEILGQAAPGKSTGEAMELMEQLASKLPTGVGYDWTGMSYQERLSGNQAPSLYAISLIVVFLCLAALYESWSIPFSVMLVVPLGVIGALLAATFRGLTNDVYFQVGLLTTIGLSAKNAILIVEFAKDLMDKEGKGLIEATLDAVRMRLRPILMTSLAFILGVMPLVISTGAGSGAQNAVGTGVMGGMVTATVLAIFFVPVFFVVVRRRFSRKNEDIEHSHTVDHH
observedProperty: log10 MIC (log10 of the value in µg/mL)
Values reflect log10 of reported MIC (µg/mL).

Below, each entry is followed by its recorded log10 MIC result.
Oc1ccc(CCCCCCc2ccc(O)c(O)c2)cc1O 0.90
Oc1ccc(CCCCc2ccccc2O)cc1O 0.60
Oc1ccc(CCCCCCCc2ccc(O)c(O)c2)cc1O 0.90

API: the following record is the query input.
Param readout= log10 MIC; system= Multidrug efflux pump subunit AcrB (Escherichia coli (strain K12)) (UniProt P31224); entry= Oc1ccc(CCCCCc2ccc(O)c(O)c2)cc1O ; returns value.
0.90

====

test system: Cell membrane; experiment: Induction of outer membrane permeabilization in wild type Escherichia coli BW25113 assessed as increase in nitrocefin hydrolysis at 256 ug/ml by spectrophotometry analysis; conditions: dose 256 µg/ml
observedProperty: Activity

compound	testedSystem	Activity
O=C(NCCc1ccc(O)c(O)c1)c1ccc(O)c(O)c1	Cell membrane	Non-Toxic
C[C@H](Cc1ccc(O)c(O)c1)[C@@H](C)Cc1ccc(O)c(O)c1 [MASOPROCOL]	Cell membrane	Toxic
Oc1ccc(CCCc2ccc(O)c(O)c2)cc1O	Cell membrane	Non-Toxic
O=C(NCCc1ccc(O)c(O)c1)c1ccccc1O	Cell membrane	Non-Toxic

Give Activity (Cell membrane) of the following compound: Oc1ccc(CCCCc2cc(O)c(O)c(O)c2)cc1O
Non-Toxic

====

system: Cell membrane; assay: Induction of outer membrane permeabilization in wild type Escherichia coli BW25113 assessed as increase in nitrocefin hydrolysis at 128 ug/ml by spectrophotometry analysis; settings: dose 128 µg/ml
observedProperty: Activity

Consider the reported Activity for these compounds:
Oc1ccc(CCCCCCc2ccc(O)c(O)c2)cc1O Non-Toxic
Oc1ccc(CCCCc2ccc(Br)cc2)cc1O Toxic
Oc1ccc(CCCCc2ccc(Cl)cc2)cc1O Toxic
Oc1ccc(CCCCCc2ccc(O)c(O)c2)cc1O Non-Toxic

Observed Activity on Cell membrane for Oc1ccc(CCCCc2ccccc2O)cc1O , please.
Non-Toxic

Entry Oc1ccc(CCCCCCCc2ccc(O)c(O)c2)cc1O please
Non-Toxic

====

biological target: Multidrug efflux pump subunit AcrB (Escherichia coli (strain K12)) (UniProt P31224); test: Inhibition of AcrB in Escherichia coli BW25113 assessed as potentiation of tetraphenylphosphonium induced antibacterial activity by measuring tetraphenylphosphonium MIC at 16 ug/ml measured after 18 hrs by checkerboard titration method (reference value: 1024 ug/ml); settings: dose 16.0 µg/ml
Below, each of the molecules is paired with its reported MIC value.
Note: a bare number is incomplete; add the unit.

Here is how some molecules turned out for MIC.
Oc1ccc(CCCCCCCc2ccc(O)c(O)c2)cc1O 1020 µg/mL
Oc1ccc(CCCCCc2ccc(O)c(O)c2)cc1O 1020 µg/mL
Oc1ccc(CCCCc2ccc(Br)cc2)cc1O 1020 µg/mL
Oc1ccc(CCCCc2cc3cccc4ccc5cccc2c5c43)cc1O 512 µg/mL
O=C(NCCc1ccc(O)c(O)c1)c1ccccc1O 1020 µg/mL
Oc1ccc(CCCCc2ccc(Cl)cc2)cc1O 1020 µg/mL
Oc1ccc(CCCCc2ccc(O)c(O)c2)cc1O 1020 µg/mL
O=C(NCCc1ccc(O)c(O)c1)c1ccc(C(F)(F)F)cc1 1020 µg/mL
Cc1ccc(C(=O)NCCc2ccc(O)c(O)c2)cc1 1020 µg/mL
Nc1cc(N)cc(C(=O)NCCc2ccc(O)c(O)c2)c1 512 µg/mL

Consider the molecule Nc1ccccc1C(=O)NCCc1ccc(O)c(O)c1 and give its measured MIC.
1020 µg/mL

Now this one: O=C(NCCc1ccc(O)c(O)c1)c1ccc(O)c(O)c1
1020 µg/mL

# iterate: Nc1ccc(C(=O)NCCc2ccc(O)c(O)c2)cc1
1020 µg/mL
